System: rat liver microsomes
methodSummary: Color development in detection elements with different leuco dyes (Table 2)
Assay type: biochemical
protocolConditions: applied dose 10 μmol (formaldehyde 1 μmol)
readoutType: New Color Development, Nile Blue A leuco dye

[
  {
    "moleculeSmiles": "CC(C)[C@@H](C)/C=C/[C@@H](C)[C@H]1CC[C@H]2C3=CC=C4C[C@@H](O)CC[C@]4(C)[C@H]3CC[C@]12C",
    "observedValue": "Blue"
  },
  {
    "moleculeSmiles": "CC(Cl)(Cl)Cl",
    "observedValue": "None"
  },
  {
    "moleculeSmiles": "C=O",
    "observedValue": "Blue"
  }
]

----------
# Detector Response, threshold dose values compiled below
System: rat liver microsomes
Assay type: biochemical
Set-up: unit not given here

[
  {
    "compound": "[Ba+2]",
    "Detector Response, threshold dose": "20-100"
  }
]

Detector Response, threshold dose for O=C1C=CC(=O)C=C1.Oc1ccc(O)cc1 [Quinhydrone] ? 0.1-0.2

Can you handle `CCOP(=S)(OCC)Oc1cc(C)nc(C(C)C)n1` next? 1-100

----------
Test system: rat liver microsomes
Assay type: biochemical
Design: unit not given here
readoutType: Detector Response, threshold dose
// no unit string in output, number only

Please review the entries below; each comes with its answer.
[
  {
    "compound": "NC=O [Formamide]",
    "readoutType": "Detector Response, threshold dose",
    "observedValue": 100
  },
  {
    "compound": "[La+3] [Lanthanum(III)]",
    "readoutType": "Detector Response, threshold dose",
    "observedValue": 5
  },
  {
    "compound": "NC(=O)CI [Iodoacetamide]",
    "readoutType": "Detector Response, threshold dose",
    "observedValue": 0.1
  },
  {
    "compound": "Cl[C@H]1[C@H](Cl)[C@@H](Cl)[C@@H](Cl)[C@H](Cl)[C@H]1Cl [Lindane (USP), Lindane]",
    "readoutType": "Detector Response, threshold dose",
    "observedValue": 0.2
  },
  {
    "compound": "C[C@H](CCC(=O)O)[C@H]1CC[C@H]2[C@@H]3CC[C@@H]4C[C@H](O)CC[C@]4(C)[C@H]3C[C@H](O)[C@]12C [Deoxycholate]",
    "readoutType": "Detector Response, threshold dose",
    "observedValue": 0.5
  }
]

Detector Response, threshold dose for c1ccc(Nc2ccccc2)cc1 [Diphenylamine] ? 100

Can you handle Oc1ccc2ccccc2c1 [2-Naphthol] next? 20

Can you handle Cc1cc(O)ccc1O [Methylhydroquinone] next? 30

Can you handle C[C@]12CCC(=O)C=C1CC[C@@H]1[C@@H]2[C@@H](O)C[C@@]2(C)[C@H]1CC[C@]2(O)C(=O)CO [Hydrocortisone] next? 0.1

Can you handle CC1=CC(=O)c2ccccc2C1=O [Menadione] next? 0.01

Can you handle C=CC#N [Acrylonitrile] next? 20

----------
Test system: rat liver microsomes
Format: biochemical
Design: unit not given here
# Detector Response, threshold dose values compiled below
// no unit string in output, number only

[
  {
    "compound": "[Mn+2] [Manganese(II)]",
    "measuredTarget": "rat liver microsomes",
    "Detector Response, threshold dose": 5
  }
]

Detector Response, threshold dose for [Dy+3] [Dysprosium(III)] ? 5
